Listing: IC50 of selected compounds
Tested on: human epidermoid carcinoma KB3-1 cells
Experiment: Antiproliferative activity against KB3-1 cancer cells (WST-8, 72 h)
Type: cell-based
Settings: Homo sapiens, KB 3-1, WST-8, average of triplicate

CN(C)[C@H]1CC[C@@]2(C)[C@@H](CC[C@@H]3[C@@H]2CC[C@]2(C)[C@@H](c4ccc5ccncc5c4)CC[C@@H]32)C1 [Compound 28, reference compound] :: 4.8 µM
Cn1ccc2c(c1=O)C=C1CC[C@]3(C)[C@@H](c4ccc5ccncc5c4)CC[C@H]3[C@@H]1O2 :: 8.6 µM
Cc1cc2c(c(=O)o1)C=C1CC[C@]3(C)[C@@H](c4ccc5ccncc5c4)CC[C@H]3[C@@H]1O2 :: 62.8 µM
Cc1oc(=O)c2c(c1CO)O[C@@H]1C(=C2)CC[C@]2(C)[C@@H](c3ccc4ccncc4c3)CC[C@@H]12 :: 10 µM

get_value(item= C[C@]12CCC3=Cc4c(cc[nH]c4=O)O[C@H]3[C@@H]1CC[C@@H]2c1ccc2ccncc2c1 , readout=IC50) returns 11 µM
